Data provenance is patent US8476265B2.

Target: human muscarinic acetylcholine M3 receptor (Homo sapiens)
Sequence (P20309 whole entry): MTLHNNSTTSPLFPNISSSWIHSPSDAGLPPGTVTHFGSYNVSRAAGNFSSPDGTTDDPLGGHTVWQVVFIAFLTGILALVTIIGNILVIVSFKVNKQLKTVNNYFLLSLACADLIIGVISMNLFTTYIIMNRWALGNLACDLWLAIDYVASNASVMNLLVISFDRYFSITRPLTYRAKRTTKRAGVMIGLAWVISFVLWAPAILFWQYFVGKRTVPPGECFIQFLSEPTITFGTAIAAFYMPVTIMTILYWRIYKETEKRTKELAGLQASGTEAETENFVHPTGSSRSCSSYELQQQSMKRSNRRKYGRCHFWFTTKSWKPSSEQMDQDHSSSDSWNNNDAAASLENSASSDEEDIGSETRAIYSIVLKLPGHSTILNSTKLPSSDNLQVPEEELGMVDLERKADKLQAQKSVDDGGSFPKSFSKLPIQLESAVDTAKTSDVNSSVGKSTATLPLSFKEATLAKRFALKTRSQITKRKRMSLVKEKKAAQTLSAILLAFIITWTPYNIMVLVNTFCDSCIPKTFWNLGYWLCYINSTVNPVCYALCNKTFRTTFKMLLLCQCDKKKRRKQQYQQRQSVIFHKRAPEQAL
pIC50: −log10 of the molar value.
reported metric: pIC50

Consider the following illustrative entries.
[
  {
    "compound": "CCN(CCNCCc1ccc(O)c2[nH]c(=O)sc12)C(=O)CCOCCc1cccc(CCN2CCC3(CC2)CN(C(=O)c2csc(C(C)C)n2)CCO3)c1 [Example 35, ditrifluoroacetate]",
    "target": "human muscarinic acetylcholine M3 receptor (Homo sapiens)",
    "recorded value": 8.40
  },
  {
    "compound": "CCc1nc(C(=O)N2CCOC3(CCN(Cc4cccc(CCOCCC(=O)N(CCNCCc5ccc(O)c6c5OCC(=O)N6)C5CCCC5)c4Cl)CC3)C2)cs1 [Example 33, ditrifluoroacetate]",
    "target": "human muscarinic acetylcholine M3 receptor (Homo sapiens)",
    "recorded value": 9.40
  },
  {
    "compound": "Cc1ccn2cc(C(=O)N3CCOC4(CCN(Cc5cccc(CCOCCC(=O)N(CCNCCc6ccc(O)c7c6OCC(=O)N7)C6CCCCC6)c5)CC4)C3)nc2c1 [Example 150]",
    "target": "human muscarinic acetylcholine M3 receptor (Homo sapiens)",
    "recorded value": 8.50
  }
]

A: CC(C)c1nc(C(=O)N2CCOC3(CCN(Cc4cccc(CCOCCC(=O)N(CCNCCc5ccc(O)c6c5OCC(=O)N6)CC(F)F)c4F)CC3)C2)cs1 [Example 73, ditrifluoroacetate]
B: CC(C)c1nc(C(=O)N2CCOC3(CCN(CCc4cccc(CCOCCC(=O)N(CCNCCc5ccc(O)c6c5OCC(=O)N6)C5CCCCC5)c4)CC3)C2)cs1 [Example 36, ditrifluoroacetate]
Input: Which item exceeds the other in pIC50, A or B ? Respond using the label that marks the chosen record.
Output: A

====

Molecular target: Adrenergic β2 (Homo sapiens, UniProt P07550)
Construct: Adherent H292 cells are removed from tissue culture flasks by treatment with Accutase™ cell detachment solution; endogenous in cells; host or cells: H292 cells
Sequence (P07550 whole entry): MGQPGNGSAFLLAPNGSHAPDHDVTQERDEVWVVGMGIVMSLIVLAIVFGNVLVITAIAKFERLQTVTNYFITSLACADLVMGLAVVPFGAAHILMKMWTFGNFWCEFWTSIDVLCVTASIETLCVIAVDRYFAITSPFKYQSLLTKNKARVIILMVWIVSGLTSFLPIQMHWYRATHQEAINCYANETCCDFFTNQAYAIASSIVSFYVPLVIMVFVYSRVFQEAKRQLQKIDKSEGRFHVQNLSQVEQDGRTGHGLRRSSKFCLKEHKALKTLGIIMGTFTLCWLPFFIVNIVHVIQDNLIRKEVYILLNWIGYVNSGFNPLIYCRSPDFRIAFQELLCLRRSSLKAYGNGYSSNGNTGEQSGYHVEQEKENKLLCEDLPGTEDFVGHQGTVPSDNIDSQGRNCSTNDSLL
Experiment: Adrenergic β2 mediated cAMP production in H292 cells (AlphaScreen), concentration response
Type: cell-based
Conditions: 60 min, 300 μM rolipram, read-out: β2 pEC50 (converted)
reported metric: EC50 (µM)

Consider the following illustrative entries.
[
  {
    "compound": "CC(C)c1nc(C(=O)N2CCOC3(CCN(Cc4cccc(CCOCCC(=O)N(CCNCCc5ccc(O)c6c5OCC(=O)N6)[C@H](C)c5ccccc5)c4F)CC3)C2)cs1 [Example 14, ditrifluoroacetate]",
    "unit text": "µM",
    "recorded value": 0.0501
  },
  {
    "compound": "CCN(CCNCCc1ccc(O)c2[nH]c(=O)sc12)C(=O)CCOCCc1cc(Cl)cc(CN2CCC3(CC2)CN(C(=O)c2csc(C(C)C)n2)CCO3)c1 [Example 50, ditrifluoroacetate]",
    "unit text": "µM",
    "recorded value": 0.126
  },
  {
    "compound": "CC(C)c1nc(C(=O)N2CCOC3(CCN(CCc4cc(CCOCCC(=O)N(CCNCCc5ccc(O)c6c5OCC(=O)N6)C5CCCCC5)cs4)CC3)C2)cs1 [Example 63, ditrifluoroacetate]",
    "unit text": "µM",
    "recorded value": 0.158
  },
  {
    "compound": "CC(C)c1nc(C(=O)N2CCOC3(CCN(CCc4cccc(CCOCCC(=O)N(CCNCCc5ccc(O)c6c5OCC(=O)N6)C5CCCC5)c4)CC3)C2)cs1 [Example 39, ditrifluoroacetate]",
    "unit text": "µM",
    "recorded value": 0.01
  }
]

a: CCc1nc(C(=O)N2CCOC3(CCN(Cc4cccc(CCOCCC(=O)N(CCNCCc5ccc(O)c6c5OCC(=O)N6)C5CCCCC5)c4)CC3)C2)cs1
b: CC(C)c1nc(C(=O)N2CCOC3(CCN(Cc4cccc(CCOCCC(=O)N(CCNCCc5ccc(O)c6c5OCC(=O)N6)C5CCCCCC5)c4F)CC3)C2)cs1 [Example 7, ditrifluoroacetate]
Input: Hi, I'm comparing two records. Which one has the lower EC50, a or b ? Respond using the label that marks the chosen record.
Output: b
